Data origin, for the record: patent US20200024322A1

- target_desc: T1, human GLP-1 receptor (human, UniProt P43220 24-463)
- T1 construct: whole, on cells; Used as crude membranes of stably transfected HEK293 cells; also called hGLP1R; hGLP-1R
- method_notes: SPA, [125I]-GLP-1 displacement, hGLP-1R membranes
quantity: Ki (nM)

# binder, endpoint_value
rows = [
    ("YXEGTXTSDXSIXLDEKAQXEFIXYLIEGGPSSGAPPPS (Aib2; αMeF(2F)6; 4Pal10; αMeL13; K17((2-[2-(2-Amino-ethoxy)-ethoxy]-acetyl)2-(γ-Glu)-CO-(CH2)18-CO2H); Aib20; Aib24; C-terminal NH2) [Example 189]", 8.81),
    ("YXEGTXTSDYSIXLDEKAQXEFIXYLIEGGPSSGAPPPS (Aib2; αMeF(2F)6; αMeL13; K17((2-[2-(2-Amino-ethoxy)-ethoxy]-acetyl)2-(γ-Glu)-CO-(CH2)18-CO2H); Aib20; D-Glu24; C-terminal NH2) [Example 1]", 6.67),
    ("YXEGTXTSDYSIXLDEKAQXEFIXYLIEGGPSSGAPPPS (Aib2; αMeF(2F)6; αMeL13; K17((2-[2-(2-Amino-ethoxy)-ethoxy]-acetyl)2-(γ-Glu)-CO-(CH2)14-CO2H); Aib20; D-Glu24; C-terminal NH2) [Example 208]", 2.13),
    ("YXEGTFTSDYSIXLDEKAQXAFIEYLIEGGPSSGAPPPS (Aib2; αMeL13; K17((2-[2-(2-Amino-ethoxy)-ethoxy]-acetyl)2-(γ-Glu)-CO-(CH2)18-CO2H); Aib20; C-terminal NH2) [Example 59]", 8.2),
    ("YXEGTFTSDYSILLDKKAQXAFIEYLIEGGPSSGAPPPS (Aib2; K17((2-[2-(2-Amino-ethoxy)-ethoxy]-acetyl)-(γ-Glu)-(Trx)-CO-(CH2)18-CO2H); Aib20; C-terminal NH2) [Example 110]", 4.38),
    ("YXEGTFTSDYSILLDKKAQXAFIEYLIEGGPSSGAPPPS (Aib2; K17((2-[2-(2-Amino-ethoxy)-ethoxy]-acetyl)-AOC-(γ-Glu)-CO-(CH2)18-CO2H); Aib20; C-terminal NH2) [Example 108]", 3),
]
